- ASSAY_TARGET: ACC2 (Homo sapiens, UniProt O00763)
- Sequence (O00763 whole entry, species assumed): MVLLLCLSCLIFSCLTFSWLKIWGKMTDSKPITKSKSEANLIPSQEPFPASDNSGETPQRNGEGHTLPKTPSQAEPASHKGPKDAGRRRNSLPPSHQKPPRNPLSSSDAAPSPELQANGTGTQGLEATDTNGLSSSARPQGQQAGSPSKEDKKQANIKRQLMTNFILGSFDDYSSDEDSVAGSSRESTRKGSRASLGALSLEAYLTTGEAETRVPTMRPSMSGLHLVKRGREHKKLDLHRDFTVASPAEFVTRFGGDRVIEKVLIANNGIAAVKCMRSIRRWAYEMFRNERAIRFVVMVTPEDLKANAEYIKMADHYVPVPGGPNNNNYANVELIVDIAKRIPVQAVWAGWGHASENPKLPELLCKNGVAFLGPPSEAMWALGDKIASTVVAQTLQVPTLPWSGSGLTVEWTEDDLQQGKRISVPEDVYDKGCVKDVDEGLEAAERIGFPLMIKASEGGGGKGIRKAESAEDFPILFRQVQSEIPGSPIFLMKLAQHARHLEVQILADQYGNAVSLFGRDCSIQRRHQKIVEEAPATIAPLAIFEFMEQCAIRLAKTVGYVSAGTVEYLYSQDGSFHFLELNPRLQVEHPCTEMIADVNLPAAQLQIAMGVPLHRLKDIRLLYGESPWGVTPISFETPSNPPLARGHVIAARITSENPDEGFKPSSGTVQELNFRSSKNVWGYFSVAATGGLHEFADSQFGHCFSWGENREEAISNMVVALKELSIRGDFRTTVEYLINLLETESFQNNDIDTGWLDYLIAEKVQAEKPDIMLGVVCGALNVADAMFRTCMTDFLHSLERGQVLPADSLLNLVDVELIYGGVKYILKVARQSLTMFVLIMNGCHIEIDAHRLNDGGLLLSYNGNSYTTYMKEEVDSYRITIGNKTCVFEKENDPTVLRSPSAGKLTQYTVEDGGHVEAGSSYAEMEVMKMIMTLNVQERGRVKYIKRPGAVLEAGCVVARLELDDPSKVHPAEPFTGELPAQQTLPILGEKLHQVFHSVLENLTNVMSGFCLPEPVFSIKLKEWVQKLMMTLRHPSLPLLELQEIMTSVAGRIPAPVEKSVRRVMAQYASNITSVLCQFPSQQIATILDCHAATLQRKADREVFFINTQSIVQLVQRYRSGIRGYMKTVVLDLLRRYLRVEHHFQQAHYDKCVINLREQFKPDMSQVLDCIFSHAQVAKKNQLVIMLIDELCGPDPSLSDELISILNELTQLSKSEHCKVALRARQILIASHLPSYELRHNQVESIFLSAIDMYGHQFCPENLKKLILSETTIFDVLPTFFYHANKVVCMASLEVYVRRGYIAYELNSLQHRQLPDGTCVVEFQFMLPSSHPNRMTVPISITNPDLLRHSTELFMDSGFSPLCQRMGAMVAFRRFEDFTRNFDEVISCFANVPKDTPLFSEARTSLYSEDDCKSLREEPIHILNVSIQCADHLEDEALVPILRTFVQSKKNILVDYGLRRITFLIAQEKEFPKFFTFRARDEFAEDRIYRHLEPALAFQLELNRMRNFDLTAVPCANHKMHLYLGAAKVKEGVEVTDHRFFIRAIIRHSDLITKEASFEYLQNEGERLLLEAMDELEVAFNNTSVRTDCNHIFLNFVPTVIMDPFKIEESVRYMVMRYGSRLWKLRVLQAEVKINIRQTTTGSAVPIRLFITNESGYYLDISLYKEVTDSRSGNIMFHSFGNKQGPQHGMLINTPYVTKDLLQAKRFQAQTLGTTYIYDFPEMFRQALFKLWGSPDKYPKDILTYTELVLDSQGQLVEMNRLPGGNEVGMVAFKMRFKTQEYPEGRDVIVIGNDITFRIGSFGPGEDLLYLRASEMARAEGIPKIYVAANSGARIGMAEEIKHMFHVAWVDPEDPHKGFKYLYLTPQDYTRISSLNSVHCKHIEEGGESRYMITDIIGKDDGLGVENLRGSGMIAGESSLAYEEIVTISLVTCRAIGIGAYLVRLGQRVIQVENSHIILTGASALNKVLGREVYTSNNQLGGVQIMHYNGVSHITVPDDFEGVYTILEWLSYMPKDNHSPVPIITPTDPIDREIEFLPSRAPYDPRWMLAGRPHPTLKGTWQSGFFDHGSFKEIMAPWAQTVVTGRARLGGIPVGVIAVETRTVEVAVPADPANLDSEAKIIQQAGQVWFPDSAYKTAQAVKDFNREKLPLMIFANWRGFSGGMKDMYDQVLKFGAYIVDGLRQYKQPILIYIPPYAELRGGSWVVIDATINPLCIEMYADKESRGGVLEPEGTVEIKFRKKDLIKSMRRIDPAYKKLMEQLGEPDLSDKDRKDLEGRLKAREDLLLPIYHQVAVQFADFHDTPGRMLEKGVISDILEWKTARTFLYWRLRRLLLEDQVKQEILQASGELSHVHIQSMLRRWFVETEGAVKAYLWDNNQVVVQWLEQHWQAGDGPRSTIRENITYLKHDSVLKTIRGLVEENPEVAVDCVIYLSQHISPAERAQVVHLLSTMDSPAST
- EXPERIMENTAL_DETAILS: In vitro ACC2 inhibition assay (ADP-Glo)
- Type: biochemical
- CONDITION_DESCRIPTION: read-out: ACC2
Catalogue of molecules with associated IC50

Sample answers from the record:
Input line: Name the recorded IC50 of the item CCOC(=O)c1sc2c(c1C)c(=O)n(CC(=O)O)c(=O)n2C[C@@H](OC)c1ccccc1 in your answer.
Output line: 20 to 50 µM

Input line: Name the recorded IC50 of the item CCOc1ccccc1CCn1c(=O)n(C(C)(C)C(N)=O)c(=O)c2c(C)c(-c3ncco3)sc21 in your answer.
Output line: < 1 µM

Input line: Name the recorded IC50 of the item CCOC(=O)c1sc2c(c1C)c(=O)n(C[C@H](C)O)c(=O)n2CCc1ccccc1 in your answer.
Output line: 5 to 20 µM

Input line: Name the recorded IC50 of the item CCOC(=O)c1sc2c(c1C)c(=O)n(CC(=O)O)c(=O)n2CC(OC(C)=O)c1ccccc1 (centres unmarked) in your answer.
Output line: < 5 µM

Input line: Name the recorded IC50 of the item CCOC(=O)c1sc2c(c1C)c(=O)n(CCO)c(=O)n2C(C)Cc1ccccc1 (centres unmarked) in your answer.
Output line: 20 to 50 µM

More entries:
Input line: Name the recorded IC50 of the item Cc1c(-c2ncco2)sc2c1c(=O)n(C(C)(C)C(=O)O)c(=O)n2C[C@H](OC(=O)N1CCOCC1)c1ccccc1 in your answer.
Output line: < 5 µM

Input line: Name the recorded IC50 of the item COc1ccccc1[C@H](Cn1c(=O)n(C(C)(C)C(=O)N2CCOCC2)c(=O)c2c(C)c(-c3ncco3)sc21)OC(C)C in your answer.
Output line: < 0.1 µM

Input line: Name the recorded IC50 of the item Cc1c(-c2ncco2)sc2c1c(=O)n(C(C)(C)C(=O)O)c(=O)n2C[C@H](OC[C@H](C)O)c1ccccc1 in your answer.
Output line: < 5 µM
